# System: NCI/ADR-RES ovarian
# assay_details: NCI tumour cell line growth inhibition, 48 h
Parameter: TGI. Scope: all listed entries.
Please give a number only; it is taken to be in µM.

Worked cases, answers included:
{"columns": ["compound", "TGI / µM"],
 "data": [
  ["O=C(CCN1CCCC1)Nc1ccc2c(NCc3ccccc3)c3ccccc3nc2c1", 55],
  ["COc1cc(-c2nc3ccccc3s2)ccc1OCCCCOc1cc2c(cc1OC)C(=O)N1CCC[C@H]1C=N2", 6.12],
  ["Cc1ccc2nc3ccccc3c(NCc3ccc(Cl)cc3)c2c1", 12.4],
  ["C=C(C(=O)O[C@H]1C/C(C)=C/CC/C(CO)=C/[C@H]2C(=O)OC(=C)[C@H]12)C(O)CO (stereo not given in full)", 48.4]
]}

We now examine a further compound.
Query TGI for `O=C1CCc2c(sc3[nH]c(=S)n(-c4cc(C(F)(F)F)cc(C(F)(F)F)c4)c(=O)c23)C1`
11.4

###

# Test system: MALME-3M melanoma
# assay_details: NCI tumour cell line growth inhibition, 48 h
Measured TGI, listed per entry.

{"columns": ["molecule", "measured_parameter", "experimental_value"],
 "data": [
  ["Cc1ccc(S(=O)(=O)N2C[C@@H]3CC[C@]4(CO[Si](C)(C)C(C)(C)C)N[C@@H](c5ccccc5)[C@H]2[C@H]34)cc1", "TGI", "46.3 µM"],
  ["CCCn1c2c(c3c(O)cccc31)C(=O)c1ccccc1-2", "TGI", "> 100 µM"],
  ["Cc1cccc2c(N)c3cccc(C(=O)NCC[N+](C)(C)Cc4ccc([N+](=O)[O-])s4)c3nc12", "TGI", "25 µM"],
  ["Cc1c(C(=O)C/C(=N/NC(=O)c2ccccc2)C(=O)Nc2ccc(Cl)cc2)[n+](=O)c2ccccc2n1[O-]", "TGI", "> 100 µM"],
  ["COc1cc(-c2nc3ccccc3s2)ccc1OCCCCOc1cc2c(cc1OC)C(=O)N1CCC[C@H]1C=N2", "TGI", "3.46 µM"]
]}

Give TGI for the following molecule: `Cc1nc2cc(F)c(F)cc2[nH]c1=O`
> 100 µM

Consider the molecule O=c1[nH]c(=O)n(C2CC(O)C(CO)O2)cc1Oc1ccccc1 (centres undefined) . State its measured TGI.
> 100 µM

For `O=C1c2cc(Cc3ccccc3)c(=O)c(Cc3ccccc3)cc2C(=O)c2cc(Cc3ccccc3)c(=O)c(Cc3ccccc3)cc21` , write its TGI.
> 100 µM

State its TGI for this molecule: O=C(O)C(Cc1cnc[nH]1)N1C(=O)c2ccccc2C1=O (centres undefined)
> 100 µM

###

Each entry below carries its reported TGI.
# Tested on: K-562 leukemia
# assay_details: NCI tumour cell line growth inhibition, 48 h

{"columns": ["compound", "TGI"],
 "data": [
  ["COc1cc2ccc(C(=O)NCCCNC(=O)c3ccc4cc(OC)c(OC)cc4c3)cc2cc1OC", "> 100 µM"],
  ["CC(=O)O[C@H]1CC[C@@]2(C)C(=CC[C@@H]3[C@@H]2CC[C@]2(C)C(=N/O)/C(=C\\c4ccccc4)C[C@@H]32)C1", "> 100 µM"],
  ["C#CC(O)(c1nc2ccccc2s1)c1nc2ccccc2s1", "> 100 µM"],
  ["N#Cc1nc2cc(Cl)ccc2nc1N1CCN(c2ccc([N+](=O)[O-])cc2)CC1", "> 100 µM"],
  ["CCOC(=O)/C(C(N)=O)=C(\\O)C(=O)/C(Br)=C(\\O)c1ccccc1", "31.2 µM"],
  ["Cn1cccc1-c1ccc(-c2ccc(CO)[se]2)[se]1", "> 100 µM"],
  ["CN(Cc1cnc2nc(N)nc(N)c2n1)c1ccc(C(=O)NC23CC4CC(CC(C4)C2)C3)cc1", "65.8 µM"],
  ["O[C@@H]1C=C[C@]23CCN(Cc4cc5c(cc42)OCO5)[C@@H]3C1", "> 100 µM"]
]}

Now consider a different compound.
Give a short answer stating reported TGI for CC1=NN(c2cccc(Cl)c2)C2(C1=Cc1ccc(O)cc1)C(Cl)C(=O)N2c1nc2ccccc2s1 (centres undefined) .
72.7 µM
